subject_of_test: human recombinant Aurora B (Homo sapiens (Human))
Sequence (Q96GD4 whole entry): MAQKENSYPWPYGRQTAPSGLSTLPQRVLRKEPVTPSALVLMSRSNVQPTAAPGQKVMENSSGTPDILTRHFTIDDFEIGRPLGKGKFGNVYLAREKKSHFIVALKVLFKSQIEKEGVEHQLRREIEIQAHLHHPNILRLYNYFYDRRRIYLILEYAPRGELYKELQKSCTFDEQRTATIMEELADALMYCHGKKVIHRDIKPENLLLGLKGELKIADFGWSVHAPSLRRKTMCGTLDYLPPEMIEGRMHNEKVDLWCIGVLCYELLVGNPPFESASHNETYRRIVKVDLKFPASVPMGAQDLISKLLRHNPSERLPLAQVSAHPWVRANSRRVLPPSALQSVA
assay_text: Aurora B Kinase Biochemical Assay (ADP-Glo)
applied_conditions: ratio of Aurora B IC50 to PLK4 IC50 (selectivity)
parameter: [Aurora B IC50 (nM)]/[PLK4 IC50 (nM)]

Some solved entries appear below for comparison.
| compound | [Aurora B IC50 (nM)]/[PLK4 IC50 (nM)] |
| --- | --- |
| COc1ccc2c(c1)[C@]1(C[C@H]1c1cc3[nH]nc(Nc4nc(C)ncc4OC)c3cc1F)C(=O)N2 [Example 144] | 61.4367 |
| COc1ccc2c(c1)[C@]1(C[C@H]1c1ccc3c(Nc4cc(S(=O)(=O)N(C)C)ccc4OC)n[nH]c3c1)C(=O)N2 [Example 179] | 5384.4135 |
| COc1ccc2c(c1)[C@]1(C[C@H]1c1ccc3c(Nc4ccc(C(=O)NC(C)C)nc4OC)n[nH]c3c1)C(=O)N2 [Example 231] | 316.7307 |
| COc1ccc2c(c1)[C@]1(C[C@H]1c1ccc3c(Nc4nc(C)nc(N5CCS(=O)(=O)CC5)c4OC)n[nH]c3c1)C(=O)N2 [Example 57] | 831.2992 |
| COc1cnc(C)nc1Nc1n[nH]c2cc([C@@H]3C[C@@]34C(=O)Nc3ccc(OC(F)(F)F)cc34)ccc12 [Example 138] | 36 |

P. COc1ccc2c(c1)[C@]1(C[C@H]1c1ccc3c(Nc4cc5c(cc4OC)C(=O)N(C)C5)n[nH]c3c1)C(=O)N2 [Example 265]
Q. COc1ccc2c(c1)[C@]1(C[C@H]1c1ccc3c(Nc4nccc5c4OC[C@H]5CO)n[nH]c3c1)C(=O)N2 (single isomer, unassigned) [Example 34]
R. COc1ccc2c(c1)[C@]1(C[C@H]1c1ccc3c(Nc4nc(C5CC5)cnc4OC)n[nH]c3c1)C(=O)N2.O=C(O)C(F)(F)F [Example 80]
IN: Ordering criterion: [Aurora B IC50 (nM)]/[PLK4 IC50 (nM)]; begin with the maximum. Order the labels as requested and list them.
OUT: P, R, Q

1. COc1ccc2c(c1)[C@]1(C[C@H]1c1ccc3c(Nc4nc(C)ncc4C4CC4)n[nH]c3c1)C(=O)N2 [Example 140]
2. COc1ccc2c(c1)[C@]1(C[C@H]1c1ccc3c(Nc4cccc5c4OCC5=O)n[nH]c3c1)C(=O)N2 [Example 31]
IN: # query: argmin of [Aurora B IC50 (nM)]/[PLK4 IC50 (nM)] over 1 and 2 Kindly give the label for the entry you pick.
OUT: 2

I. COc1ccc2c(c1)[C@]1(C[C@H]1c1ccc3c(Nc4cnc(P(C)(C)=O)cc4OC)n[nH]c3c1)C(=O)N2 [Example 249]
II. CCOc1cc(S(C)(=O)=O)cnc1Nc1n[nH]c2cc([C@@H]3C[C@@]34C(=O)Nc3ccc(OC)cc34)ccc12 [Example 208]
IN: Out of I and II , name the one with the higher [Aurora B IC50 (nM)]/[PLK4 IC50 (nM)]. Respond using the label that marks the chosen record.
OUT: II
(II: 2471, I: 451.7751)

###

subject_of_test: human recombinant Aurora A (Homo sapiens (Human), UniProt O14965)
Sequence (O14965 whole entry): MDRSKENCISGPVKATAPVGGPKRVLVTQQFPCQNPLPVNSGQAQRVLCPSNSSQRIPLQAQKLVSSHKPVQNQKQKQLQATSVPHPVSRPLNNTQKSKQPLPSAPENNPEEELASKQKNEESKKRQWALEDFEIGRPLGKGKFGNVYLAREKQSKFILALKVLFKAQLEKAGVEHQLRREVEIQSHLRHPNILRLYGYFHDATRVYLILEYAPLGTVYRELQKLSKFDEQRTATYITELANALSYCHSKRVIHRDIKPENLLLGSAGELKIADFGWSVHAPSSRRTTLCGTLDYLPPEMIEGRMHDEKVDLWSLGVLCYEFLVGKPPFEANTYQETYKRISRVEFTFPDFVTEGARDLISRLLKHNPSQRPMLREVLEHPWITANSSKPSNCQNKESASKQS
assay_text: Aurora A Kinase Biochemical Assay (ADP-Glo)
applied_conditions: ratio of Aurora A IC50 to PLK4 IC50 (selectivity)
parameter: [Aurora A IC50 (nM)]/[PLK4 IC50 (nM)]

The following compounds have reported results that may help.
| structure_notation | subject_of_test | [Aurora A IC50 (nM)]/[PLK4 IC50 (nM)] |
| --- | --- | --- |
| COc1ccc2c(c1)[C@]1(C[C@H]1c1ccc3c(Nc4cn(C)nc4OC)n[nH]c3c1)C(=O)N2 | human recombinant Aurora A (Homo sapiens (Human), UniProt O14965) | 249.6489 |
| CCOc1cc(S(C)(=O)=O)ccc1Nc1n[nH]c2cc([C@@H]3C[C@@]34C(=O)Nc3ccc(OC)cc34)ccc12 | human recombinant Aurora A (Homo sapiens (Human), UniProt O14965) | 3273.7094 |

I. COc1ccc2c(c1)[C@]1(C[C@H]1c1ccc3c(Nc4ccc(C(=O)N(C5CC5)C5CC5)nc4OC)n[nH]c3c1)C(=O)N2
II. COc1ccc2c(c1)[C@]1(C[C@H]1c1ccc3c(Nc4nc(C5CCOCC5)ncc4OC)n[nH]c3c1)C(=O)N2
IN: Could you tell me which of I and II has the lower [Aurora A IC50 (nM)]/[PLK4 IC50 (nM)] reading? Your answer should be the label of the entry you select.
OUT: I
(I: 479.1122, II: 1373.9754)

The reported numbers originate from patent US20230365537A1.
